Where do the numbers come from? From patent US20180344812A1.

Target: T1, human Glucagon-like peptide 2 receptor (GLP-2R) (human, UniProt O95838 1-553)
T1 sequence (looked up): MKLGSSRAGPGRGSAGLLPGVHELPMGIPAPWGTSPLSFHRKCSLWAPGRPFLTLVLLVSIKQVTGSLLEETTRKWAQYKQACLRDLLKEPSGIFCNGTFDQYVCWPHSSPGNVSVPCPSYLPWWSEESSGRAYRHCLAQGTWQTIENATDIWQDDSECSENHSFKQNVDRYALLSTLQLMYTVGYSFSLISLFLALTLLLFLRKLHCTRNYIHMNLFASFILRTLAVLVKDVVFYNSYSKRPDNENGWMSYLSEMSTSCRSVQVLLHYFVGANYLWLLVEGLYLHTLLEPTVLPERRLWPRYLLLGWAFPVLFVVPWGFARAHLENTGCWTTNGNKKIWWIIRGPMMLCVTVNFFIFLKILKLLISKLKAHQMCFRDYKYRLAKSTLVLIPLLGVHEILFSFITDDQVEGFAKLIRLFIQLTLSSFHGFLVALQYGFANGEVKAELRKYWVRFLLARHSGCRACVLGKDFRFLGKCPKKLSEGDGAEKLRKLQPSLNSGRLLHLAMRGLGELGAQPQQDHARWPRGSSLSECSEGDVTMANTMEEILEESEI
Test: cell-based or functional assay
Bridges are numbered along the chain shown (N, C = ends). Where no end group is shown, it is not given here. L1 = C4 bis(bromoacetamide) staple without lipid; L3 = myristic acid-PEG-PEG-ornithine staple; L5 = C18 diacid-Lys-PEG2-ornithine staple; L6 = made as L5 but on Rink amide resin
assay_endpoint: EC50, CRE-luciferase reporter in HEK293-GLP-2R-CRE cells
// unit must come after the numeric part

| binder | measured_value |
| --- | --- |
| HGDGSFSDEMNTILDNCAARDFICWLIQTKITD (linker 17-24 via L6) [mTA 51: GLP-2 (A) and L6] | 0.7 nM |

Entry under test: HGDGSFSDCMNTILDCLAARDFINWLIQTKITDPSSGAPPPS (linker 9-16 via L3; also: staple L3 carries myristic acid-PEG-PEG-ornithine lipid) [mTA 65: GLP-2 (I) and L3] . Its EC50, CRE-luciferase reporter in HEK293-GLP-2R-CRE cells was 0.06 nM

HGDGSFSDEMNTILDNCAARDFICWLIQTKITDPSSGAPPPS (linker 17-24 via L1) [mTA 59: GLP-2 (H) and L1] yielded EC50, CRE-luciferase reporter in HEK293-GLP-2R-CRE cells of 0.064 nM

get_value(item= HGDGSFSDEMNTILDNCAARDFICWLIQTKITD (linker 17-24 via L5) [mTA 50: GLP-2 (A) and L5] , readout=EC50, CRE-luciferase reporter in HEK293-GLP-2R-CRE cells) returns 6.4 nM

Lookup result for HGDGSFSDEMNTILDNCAARDFICWLIQTKITDPSSGAPPPS (linker 17-24 via L6) [mTA 64: GLP-2 (H) and L6] ; measured EC50, CRE-luciferase reporter in HEK293-GLP-2R-CRE cells: 0.7 nM
